Reported pIC50 against Protein kinase C theta type (Homo sapiens), gathered from multiple publications, appears below.
pIC50: −log10 of the molar value.
Label MET for high-side pIC50 (at or above 7) and NOT MET for low-side pIC50 (below it).

For orientation, consider the following solved cases.
# Compound, Measured Target, Class Assignment
records = [
    ("CN1CCC(Nc2nc(Nc3ccc(N4CCN(C)CC4)c(C(F)(F)F)c3)ncc2F)CC1", "Protein kinase C theta type (Homo sapiens)", "MET"),
    ("O=c1[nH]c2ncc(-c3cccc4ncccc34)nc2n1C1CCOCC1", "Protein kinase C theta type (Homo sapiens)", "NOT MET"),
]

Say whether "CN1C(C)(C)CC(Nc2nc(Nc3ccc(C(F)(F)F)c(Cl)c3)ncc2F)CC1(C)C" shows pIC50 of 7 or more.
NOT MET

Lookup "Cc1c(Nc2c(C#N)cnc3sc(-c4cccc(S(C)(=O)=O)c4)cc23)ccc2[nH]ccc12"
MET

Lookup "COc1ccc(Nc2ncc(C#N)c(NC3CC(C)(C)N(C)C(C)(C)C3)n2)cc1Cl"
MET
